B1: KCNAB2 (parent)
chain: YVDVVFANRPDPNTPMEETVRAMT

Variants of: B1
ASSAY_SUMMARY: protein stability index of a GFP-peptide fusion (GPS, HEK-293T) (PSI 1-6); higher = more stable;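 note: lentivirally expressed fusions sorted by FACS into six bins by GFP to DsRed ratio, PSI derived from sequencing read proportions per bin multiplied by bin number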
TEST_CONTEXT: c terminus: a fixed tail appended

{"RESIDUE_CODES": "YVDVVFANDPDPNTPMEETVRAMT", "protein stability index": 2.71}
{"RESIDUE_CODES": "YVDVVFANRPDPNTPMEETVRCMT", "protein stability index": 2.26}
{"RESIDUE_CODES": "YVDVVFTNRPDPNTPMEETVRAMT", "protein stability index": 2.12}
{"RESIDUE_CODES": "YVDVVFANRPDPNTEMEETVRAMT", "protein stability index": 1.73}
{"RESIDUE_CODES": "YVDVVFAHRPDPNTPMEETVRAMT", "protein stability index": 1.76}
{"RESIDUE_CODES": "YVDVVFANRPDPNTPMEETVRAMN", "protein stability index": 1.5}
{"RESIDUE_CODES": "YYDVVFANRPDPNTPMEETVRAMT", "protein stability index": 3.07}
{"RESIDUE_CODES": "YVDVVFANRPDPNTPMEETVRAME", "protein stability index": 1.86}
{"RESIDUE_CODES": "YVDVVFANRPIPNTPMEETVRAMT", "protein stability index": 2.2}
{"RESIDUE_CODES": "YVLVVFANRPDPNTPMEETVRAMT", "protein stability index": 2.51}
{"RESIDUE_CODES": "YVDVVFANRPDPNTPMEETVRLMT", "protein stability index": 1.98}
{"RESIDUE_CODES": "YVDVVFAGRPDPNTPMEETVRAMT", "protein stability index": 1.83}
{"RESIDUE_CODES": "YVDVVFANRPDRNTPMEETVRAMT", "protein stability index": 1.46}
{"RESIDUE_CODES": "YVDVVFANRPDPNTPMEYTVRAMT", "protein stability index": 2.64}
{"RESIDUE_CODES": "YVDVVFANRPDPNTPMVETVRAMT", "protein stability index": 2.06}
{"RESIDUE_CODES": "YVDVVFANRCDPNTPMEETVRAMT", "protein stability index": 2.43}
{"RESIDUE_CODES": "YVDVVFANRPDPNTVMEETVRAMT", "protein stability index": 1.87}
{"RESIDUE_CODES": "YVDVVFANRPDPNTPMEETVRAMD", "protein stability index": 1.46}
{"RESIDUE_CODES": "YVDVVFANRPDPNTPMHETVRAMT", "protein stability index": 2.85}
{"RESIDUE_CODES": "YVDVGFANRPDPNTPMEETVRAMT", "protein stability index": 2.49}
{"RESIDUE_CODES": "YVDVVFANRPDPNEPMEETVRAMT", "protein stability index": 1.7}
{"RESIDUE_CODES": "YVDVVFANRPDPWTPMEETVRAMT", "protein stability index": 2.88}
{"RESIDUE_CODES": "YVKVVFANRPDPNTPMEETVRAMT", "protein stability index": 2.13}
{"RESIDUE_CODES": "YVDVVFANRHDPNTPMEETVRAMT", "protein stability index": 2.12}
{"RESIDUE_CODES": "YVDVVFANRPDPNTPMEETVRMMT", "protein stability index": 2.32}
{"RESIDUE_CODES": "YVDVVFAARPDPNTPMEETVRAMT", "protein stability index": 2.69}
{"RESIDUE_CODES": "YVDVVFANPPDPNTPMEETVRAMT", "protein stability index": 2.84}
{"RESIDUE_CODES": "YVDVVFANRPDPNTPMEETSRAMT", "protein stability index": 2.06}
{"RESIDUE_CODES": "EVDVVFANRPDPNTPMEETVRAMT", "protein stability index": 4.6}
{"RESIDUE_CODES": "YVDVVFANRPDPNTPMEETVFAMT", "protein stability index": 2.78}
{"RESIDUE_CODES": "YVDVVFQNRPDPNTPMEETVRAMT", "protein stability index": 2.15}
{"RESIDUE_CODES": "YVDVVFAIRPDPNTPMEETVRAMT", "protein stability index": 2.35}
{"RESIDUE_CODES": "YVDVVFANRPDPNTPMEETPRAMT", "protein stability index": 1.86}
{"RESIDUE_CODES": "YVDVVFANRPKPNTPMEETVRAMT", "protein stability index": 2.05}
{"RESIDUE_CODES": "YVDVVFANRPDPGTPMEETVRAMT", "protein stability index": 2.14}
{"RESIDUE_CODES": "YVDVVFANRPDPNTPMEETVRPMT", "protein stability index": 1.69}
{"RESIDUE_CODES": "YVDVVFANRPDPNTPPEETVRAMT", "protein stability index": 1.91}
{"RESIDUE_CODES": "YVDVVFANEPDPNTPMEETVRAMT", "protein stability index": 2.15}
{"RESIDUE_CODES": "YVDVVFANRPDPQTPMEETVRAMT", "protein stability index": 2.11}
{"RESIDUE_CODES": "YVDVVFANRPDPNTPDEETVRAMT", "protein stability index": 1.77}
{"RESIDUE_CODES": "YVDVVFYNRPDPNTPMEETVRAMT", "protein stability index": 2.64}
{"RESIDUE_CODES": "YVDVVFANRPDPNTPMEETVRAET", "protein stability index": 1.86}
{"RESIDUE_CODES": "YVDVVFANRIDPNTPMEETVRAMT", "protein stability index": 2.2}
{"RESIDUE_CODES": "YVDVVFANRPDPNTPMSETVRAMT", "protein stability index": 1.2}
{"RESIDUE_CODES": "YVDVVFANREDPNTPMEETVRAMT", "protein stability index": 2.13}
{"RESIDUE_CODES": "YVDVVFANRPDSNTPMEETVRAMT", "protein stability index": 1.66}
{"RESIDUE_CODES": "YVDVVFANRPDPNTPMEETVRANT", "protein stability index": 1.8}
{"RESIDUE_CODES": "YVEVVFANRPDPNTPMEETVRAMT", "protein stability index": 1.87}
{"RESIDUE_CODES": "YVDVVFANRPDPNTPMEETVRACT", "protein stability index": 2.04}
{"RESIDUE_CODES": "YVDVTFANRPDPNTPMEETVRAMT", "protein stability index": 2.12}
{"RESIDUE_CODES": "YVDVVFANRPDPNTPMEETVRAMV", "protein stability index": 1.47}
{"RESIDUE_CODES": "YVDVVFAERPDPNTPMEETVRAMT", "protein stability index": 2.14}
{"RESIDUE_CODES": "YVDVVFANRPDPNTPTEETVRAMT", "protein stability index": 1.33}
{"RESIDUE_CODES": "YVDVVFANRPDPNTPMEETVRAST", "protein stability index": 1.58}
{"RESIDUE_CODES": "YFDVVFANRPDPNTPMEETVRAMT", "protein stability index": 2.81}
{"RESIDUE_CODES": "YVDVVFAVRPDPNTPMEETVRAMT", "protein stability index": 1.83}
{"RESIDUE_CODES": "YVDVVFANRPDPNTPMEETVRAMG", "protein stability index": 1.35}
{"RESIDUE_CODES": "YVDVVPANRPDPNTPMEETVRAMT", "protein stability index": 2.09}
{"RESIDUE_CODES": "YVDVVFANRPDPNTPMEETVRAMM", "protein stability index": 2.18}
{"RESIDUE_CODES": "YVDVVIANRPDPNTPMEETVRAMT", "protein stability index": 1.99}
{"RESIDUE_CODES": "YVDVVFANRPDPCTPMEETVRAMT", "protein stability index": 1.89}
{"RESIDUE_CODES": "YVDVVFANRPDPNTPMEELVRAMT", "protein stability index": 1.89}
{"RESIDUE_CODES": "YVDVVFANRPDPNTPMECTVRAMT", "protein stability index": 2.02}
{"RESIDUE_CODES": "YVDVSFANRPDPNTPMEETVRAMT", "protein stability index": 1.93}
{"RESIDUE_CODES": "YVDVVFAYRPDPNTPMEETVRAMT", "protein stability index": 2.88}
{"RESIDUE_CODES": "YVDVVFANRTDPNTPMEETVRAMT", "protein stability index": 2.17}
{"RESIDUE_CODES": "YVDVVFANRPDPNTPMEETIRAMT", "protein stability index": 1.87}
{"RESIDUE_CODES": "YVDVVFANRPDPNSPMEETVRAMT", "protein stability index": 1.93}
{"RESIDUE_CODES": "YVDVVFANRPDPNTPMEETVRAYT", "protein stability index": 2.13}
{"RESIDUE_CODES": "YVDVVFANRPPPNTPMEETVRAMT", "protein stability index": 1.67}
{"RESIDUE_CODES": "YVDGVFANRPDPNTPMEETVRAMT", "protein stability index": 3.05}
{"RESIDUE_CODES": "YVDVVFANRPDPNTPMEETVRTMT", "protein stability index": 1.33}
{"RESIDUE_CODES": "YVDVVFANIPDPNTPMEETVRAMT", "protein stability index": 2.07}
{"RESIDUE_CODES": "QVDVVFANRPDPNTPMEETVRAMT", "protein stability index": 4.06}
{"RESIDUE_CODES": "TVDVVFANRPDPNTPMEETVRAMT", "protein stability index": 4.31}
{"RESIDUE_CODES": "YVDVVFANRDDPNTPMEETVRAMT", "protein stability index": 2.47}
{"RESIDUE_CODES": "YVDVVFANRPDPNTPMEETVRNMT", "protein stability index": 2.13}
{"RESIDUE_CODES": "YVDVVFANRPDPNTPMEETVRAMF", "protein stability index": 3.03}
{"RESIDUE_CODES": "YVDVVFANHPDPNTPMEETVRAMT", "protein stability index": 1.66}
{"RESIDUE_CODES": "YVDVVFANRPDPNTPMEETVMAMT", "protein stability index": 1.56}
{"RESIDUE_CODES": "YVDMVFANRPDPNTPMEETVRAMT", "protein stability index": 2.87}
{"RESIDUE_CODES": "YVVVVFANRPDPNTPMEETVRAMT", "protein stability index": 2.48}
{"RESIDUE_CODES": "YVDWVFANRPDPNTPMEETVRAMT", "protein stability index": 2.33}
{"RESIDUE_CODES": "YVDVVFANRPDPNTPMEEKVRAMT", "protein stability index": 2.41}
{"RESIDUE_CODES": "YVDVVFANRPDPNTPMEETVDAMT", "protein stability index": 1.56}
{"RESIDUE_CODES": "YVDVVFANRPDPNTPMDETVRAMT", "protein stability index": 2.12}
{"RESIDUE_CODES": "YVDVVFANRPDPNTPMENTVRAMT", "protein stability index": 1.83}
{"RESIDUE_CODES": "AVDVVFANRPDPNTPMEETVRAMT", "protein stability index": 4.19}
{"RESIDUE_CODES": "YVDVVFANRPDPNTPMEFTVRAMT", "protein stability index": 2.1}
{"RESIDUE_CODES": "YVDVVFAFRPDPNTPMEETVRAMT", "protein stability index": 2.85}
{"RESIDUE_CODES": "YVDVVFANRWDPNTPMEETVRAMT", "protein stability index": 3.14}
